Ref: the supplement of paper PMC7877785

- protocolDetails: self-splicing fitness, log relative to wild type (ln ratio); higher = more splicing; Tetrahymena group I intron in knt gene, E. coli kanamycin selection, DiMSum; sequences stand for … in CUCUCU…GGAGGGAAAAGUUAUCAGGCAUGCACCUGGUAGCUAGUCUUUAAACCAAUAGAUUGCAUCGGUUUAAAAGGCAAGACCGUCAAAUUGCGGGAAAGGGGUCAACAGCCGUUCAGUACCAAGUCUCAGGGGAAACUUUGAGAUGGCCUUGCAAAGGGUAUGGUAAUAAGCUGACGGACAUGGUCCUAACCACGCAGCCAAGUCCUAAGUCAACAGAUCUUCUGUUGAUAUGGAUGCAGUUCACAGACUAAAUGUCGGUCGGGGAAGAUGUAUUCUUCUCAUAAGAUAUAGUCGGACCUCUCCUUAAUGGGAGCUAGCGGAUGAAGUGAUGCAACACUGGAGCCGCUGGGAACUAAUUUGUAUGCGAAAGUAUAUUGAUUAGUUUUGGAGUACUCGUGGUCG;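 note: selection with 25 µg/mL kanamycin versus none on LB agar overnight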
- assayConditions: 30 °C
Each item that follows carries a reported self-splicing fitness (ln).
Please reply with the number alone, leaving off any unit.

GUUGAGCAAUAUUACGACGC    -1.95
CACAAGCAAUAUUACGCCAG    -1
CCUAAGCAAUAUUACGACUG    -1.74
CCAAAGCAAUAUUACGGACU    -2.27
ACCGAGCAAUAUUACGCACG    -3.67

Task: self-splicing fitness (ln) for `ACCAAGCAAUAUUACGCGGG` ?
Output: -3.38

Task: self-splicing fitness (ln) for `UUCCAGCAAUAUUACGGCAU` ?
Output: -1.79
